Test: Solubility testing in buffer containing media
Format: physicochemical
Details: buffered aqueous HP-β-CD medium, pH 6.5, aqueous with cosolvent or surfactant or cyclodextrin, HP-β-CD 40.0% (w/w), Phosphate 6.5 (100 μM), room temperature; read-out: AOL solubility
Experimental endpoint: solubility (µg/mL)
Quick reminder: number only, in µg/mL, skip the unit.

Exercise: Returns the measured solubility for the input molecule. Input: COc1ccc(-c2cc(=S)ss2)cc1
Solution: 676

* * *

Experiment: Cyclodextrin-AOL solubility diagrams
Format: physicochemical
Settings: aqueous cyclodextrin solution, 30 °C, aqueous with cosolvent or surfactant or cyclodextrin, thermodynamic from solid, HP-β-CD 30% (w/w), 30° C.; read-out: AOL solubility
Description: A cyclodextrin-AOL solubility diagram would reveal the profile of the solubility curve of the AOL depending on the concentration of the cyclodextrin. The principle of this method is to add an excess of AOL to cyclodextrin solutions of increasing concentration, then to measure the amount of solubilized AOL. […] The solubility of AOL in each test solution was quantified by HPLC as detailed in Example 2.
Experimental endpoint: solubility at 4 h (µg/mL)
Quick reminder: number only, in µg/mL, skip the unit.

Exercise: Returns the measured solubility at 4 h for the input compound. Input: COc1ccc(-c2cc(=S)ss2)cc1
Solution: 458

* * *

Experiment: Cyclodextrin solubilization screening of AOL
Assay type: physicochemical
Conditions: water, 25 °C, thermodynamic from solid, None-H2O, stirring 20 h
Experimental endpoint: solubility at 20 h (µg/mL)
Quick reminder: number only, in µg/mL, skip the unit.

Exercise: Returns the measured solubility at 20 h for the input compound. Input: COc1ccc(-c2cc(=S)ss2)cc1 [AOL]
Solution: 0.16

* * *

Experiment: Cyclodextrin solubilization screening of AOL
Type: physicochemical
Settings: water, 25 °C, thermodynamic from solid, read-out: intrinsic solubility in water
Experimental endpoint: solubility

Exercise: Returns the measured solubility for the input compound. Input: COc1ccc(-c2cc(=S)ss2)cc1
Solution: ~0.2 µg/mL

* * *

Test: Solubility testing in buffer containing media
Format: physicochemical
Conditions: buffered aqueous SBE-β-CD medium, pH 7.5, aqueous with cosolvent or surfactant or cyclodextrin, SBE-β-CD 30.0% (w/w), Phosphate 7.5 (100 μM), room temperature; read-out: AOL solubility
Experimental endpoint: solubility
Write down the value, and be sure its unit follows.

Exercise: Returns the measured solubility for the input compound. Input: COc1ccc(-c2cc(=S)ss2)cc1
Solution: 685 µg/mL

* * *

Assay: Solubility testing in buffer containing media
Assay type: physicochemical
Conditions: buffered aqueous HP-β-CD medium, pH 5.5, aqueous with cosolvent or surfactant or cyclodextrin, HP-β-CD 40.0% (w/w), Citrate (100 μM), room temperature; read-out: AOL solubility
Experimental endpoint: solubility (mg/mL)
Quick reminder: number only, in mg/mL, skip the unit.

Exercise: Returns the measured solubility for the input compound. Input: COc1ccc(-c2cc(=S)ss2)cc1
Solution: 0.721

* * *

Experiment: Cyclodextrin-AOL solubility diagrams
Type: physicochemical
Details: aqueous SBE-β-CD solution, 20 °C, aqueous with cosolvent or surfactant or cyclodextrin, thermodynamic from solid, SBE-β-CD 20% (w/w), 20° C.; read-out: AOL solubility
Experimental endpoint: solubility at 4 h
Write down the value, and be sure its unit follows.

Exercise: Returns the measured solubility at 4 h for the input compound. Input: COc1ccc(-c2cc(=S)ss2)cc1
Solution: 277 µg/mL

Source listed as patent US20210308173A1.
